molecules and their reported GI50
Tested on: K-562 leukemia
ASSAY OVERVIEW: NCI tumour cell line growth inhibition, 48 h

> print(dat)
                                   molecule  observed.value
1  O=C(c1ccccc1)n1c(-c2ccccc2)cs/c1=N\S(=O)(=O)c1ccc(N2N=C3c4ccccc4CC3C2c2cccs2)cc1 (centres undefined)         27.6 µM
2  CCOC(=O)/C=C/C(=O)[C@H](CC(C)C)NC(=O)[C@H](Cc1ccccc1)NC(=O)OCc1ccccc1         2.09 µM

Would you kindly share the measured GI50 for N#CN1CC[C@H](C(=O)Nc2cc3cc(C(N)=O)ccc3cn2)C1 ? 0.131 µM

Would you kindly share the measured GI50 for COc1ccc(Nc2nc3cc(N)cc(N)c3nc2-c2ccccc2)cc1OC ? 20.2 µM

Would you kindly share the measured GI50 for O=C(/C=C/C12c3ccccc3C(c3ccccc31)C1C(=O)NC(=O)C12)c1ccc(Cl)cc1 (centres undefined) ? 1.99 µM

Would you kindly share the measured GI50 for O=c1cc(-c2ccccc2)oc2cc(OC/C(=N/O)c3ccc(F)cc3)ccc12 ? 27.5 µM

Would you kindly share the measured GI50 for CCOC(=O)c1ccc2c(c1)[n+](=O)c(C(C)=O)c(C(F)(F)F)n2[O-] ? 1.16 µM

Would you kindly share the measured GI50 for O=C(N/N=C/c1cc(Cl)cc(Cl)c1[O-])c1ccccc1.O=C(N/N=C/c1cc(Cl)cc(Cl)c1[O-])c1ccccc1.[Co+2] ? 15.6 µM

Would you kindly share the measured GI50 for NC(=Nc1ccc(N)cc1)C(N)=Nc1ccc(N)cc1 ? 81.8 µM
